experiment: cytotoxicity in HPDE-C7 cells, cell-based, fluorescence, HTS (AID 430); details: HPDE-C7 pancreatic duct cells viability, at 10 µM, active compounds read high;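 also: cells exposed to compound for 48 hours before viability readout; 0% = vehicle and 100% = reference cytotoxic drug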
In all, about 63,000 compounds went through this assay and about 1,100 (1.7%) were called active. The full list was thinned out, with actives kept by preference. Results with a measured potency or affinity are listed apart.
recordedMetric: cytotoxicity

Before answering, review these 3 worked examples.
INSERT INTO measurements (molecule, recordedmetric, result) VALUES
  ('Cc1oc(-c2ccc(Cl)cc2)nc1CN1CCC(C(=O)NCc2cccnc2)CC1', 'cytotoxicity', '-28.8% (inactive)'),
  ('O=C(Nc1ccc(CN2CCOCC2)cc1)c1cc2ccccc2o1', 'cytotoxicity', '-0.1% (inactive)'),
  ('O=C(Nc1ccc(CN2CCCCC2)cc1)c1ccc(Br)o1', 'cytotoxicity', '-14.9% (inactive)');

Hi, could you look up cytotoxicity for each item in my list?
1. O=C(NCC1COCCO1)C1CCN(S(=O)(=O)c2ccccc2)CC1 (stereo unspecified)
2. CCOC(=O)CSc1nc(N)cc(=O)[nH]1
3. COc1cc(C(=O)Nc2nc3ccccc3[nH]2)cc(OC)c1OC
4. Cc1onc(-c2ccccc2Cl)c1C(=O)N1CCN=C1SCc1cccnc1
5. O=C(CSc1nnc(COc2ccc(Cl)cc2)o1)OC1CCCCC1
6. Cn1c(Cc2ccccc2)nnc1SCC(=O)Nc1ccccc1N1CCOCC1
7. O=C(Nc1ccc(N2CCCCC2)cc1)c1ccc(F)cc1
8. O=C(Nc1ccon1)c1cccc(S(=O)(=O)N2CCCC2)c1

Reply:
["-6.9% (inactive)", "-12% (inactive)", "-19.5% (inactive)", "-11.9% (inactive)", "-7.9% (inactive)", "2.9% (inactive)", "23.5% (inactive)", "-18.1% (inactive)"]
